The measurements presented in this section are drawn from patent US9371320B2.

Target: JAK1 (Homo sapiens)
Construct: purchased Invitrogen
Sequence (P23458 whole entry): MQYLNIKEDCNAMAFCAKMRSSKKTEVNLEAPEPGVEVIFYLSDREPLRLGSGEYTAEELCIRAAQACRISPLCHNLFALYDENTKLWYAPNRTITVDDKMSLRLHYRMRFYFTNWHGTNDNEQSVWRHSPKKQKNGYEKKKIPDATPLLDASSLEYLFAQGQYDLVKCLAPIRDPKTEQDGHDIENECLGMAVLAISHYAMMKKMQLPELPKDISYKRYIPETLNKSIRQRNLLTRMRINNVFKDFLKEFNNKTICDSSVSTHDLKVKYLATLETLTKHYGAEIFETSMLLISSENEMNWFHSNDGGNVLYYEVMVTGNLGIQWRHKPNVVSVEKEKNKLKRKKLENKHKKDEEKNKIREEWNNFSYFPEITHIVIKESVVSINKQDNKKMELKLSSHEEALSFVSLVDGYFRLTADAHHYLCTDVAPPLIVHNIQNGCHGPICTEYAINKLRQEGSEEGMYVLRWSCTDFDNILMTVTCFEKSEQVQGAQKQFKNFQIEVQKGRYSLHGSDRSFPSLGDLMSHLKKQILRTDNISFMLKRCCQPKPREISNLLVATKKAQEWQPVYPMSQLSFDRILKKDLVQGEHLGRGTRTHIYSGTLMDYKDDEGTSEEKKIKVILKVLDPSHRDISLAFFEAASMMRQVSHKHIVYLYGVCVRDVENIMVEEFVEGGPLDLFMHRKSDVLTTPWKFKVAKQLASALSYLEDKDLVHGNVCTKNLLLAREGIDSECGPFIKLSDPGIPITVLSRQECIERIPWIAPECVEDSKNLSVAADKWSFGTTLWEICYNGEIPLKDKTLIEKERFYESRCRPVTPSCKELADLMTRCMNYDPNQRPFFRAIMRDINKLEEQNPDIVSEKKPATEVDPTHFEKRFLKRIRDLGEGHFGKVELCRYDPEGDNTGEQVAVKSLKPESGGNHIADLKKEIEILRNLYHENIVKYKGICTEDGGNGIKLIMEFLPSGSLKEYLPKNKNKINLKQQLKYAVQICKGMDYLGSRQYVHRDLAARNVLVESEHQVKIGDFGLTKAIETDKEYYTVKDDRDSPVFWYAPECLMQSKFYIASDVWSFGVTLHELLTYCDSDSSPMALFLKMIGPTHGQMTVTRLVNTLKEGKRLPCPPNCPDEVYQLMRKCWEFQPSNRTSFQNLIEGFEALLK
Assay: JAK1 enzyme inhibition test (LANCE method)
Format: biochemical
Conditions: test compound 1 μM; read-out: Inhibitory rate (%) JAK1 1 μM
MEASUREMENT KIND: inhibition at 1 µM (%)

Reference set (10 entries):
compound_structure_string=O=C(NC1CC1)c1cc(-c2nn(C3CCCC3)c3cc[nH]c(=O)c23)cs1 measurement_kind="inhibition at 1 µM" value_observed=100
compound_structure_string=CC(C)(C)n1nc(Nc2ccccc2)c2c(=O)[nH]ccc21 measurement_kind="inhibition at 1 µM" value_observed=93
compound_structure_string=O=c1[nH]ccc2c1c(-c1ccccc1)nn2C1CCCC1 measurement_kind="inhibition at 1 µM" value_observed=87
compound_structure_string=NS(=O)(=O)c1ccc(-c2nn(C3CCC(F)(F)CC3)c3cc[nH]c(=O)c23)cc1 measurement_kind="inhibition at 1 µM" value_observed=98
compound_structure_string=N#Cc1c[nH]c(=O)c2c(-c3cccc(CC(N)=O)c3)cn(C3CCCC3)c12 measurement_kind="inhibition at 1 µM" value_observed=46
compound_structure_string=N#Cc1c[nH]c(=O)c2c(-c3cnn(C4CC4)c3)cn(C3CCCC3)c12 measurement_kind="inhibition at 1 µM" value_observed=94
compound_structure_string=O=C1Cc2ccc(-c3nn(-c4c(F)cccc4F)c4c(Cl)c[nH]c(=O)c34)cc2N1 measurement_kind="inhibition at 1 µM" value_observed=54
compound_structure_string=N#CCn1cc(-c2cn(C3CCCC3)c3c(C#N)c[nH]c(=O)c23)cn1 measurement_kind="inhibition at 1 µM" value_observed=97
compound_structure_string=COc1ccc(-c2nn(C3CCCC3)c3cc[nH]c(=O)c23)cc1 measurement_kind="inhibition at 1 µM" value_observed=91
compound_structure_string=O=c1[nH]cc(Cl)c2c1c(-c1ccc(N3CCOCC3)nc1)nn2-c1c(F)cccc1F measurement_kind="inhibition at 1 µM" value_observed=66

I: NC(=O)c1cc(-c2nn(-c3c(F)cccc3F)c3cc[nH]c(=O)c23)cs1
II: O=c1[nH]ccc2c(-c3ccccc3)nn(-c3ccsc3)c12
Query block: Rank I against II by their inhibition at 1 µM values and give the higher one. Could you answer with the label of the item you picked?
Result block: I
(I: 100%, II: 55%)
